Biological target: wild-type Androgen Receptor (AR-wt) (Homo sapiens (Human), UniProt P10275)
Sequence (P10275 whole entry): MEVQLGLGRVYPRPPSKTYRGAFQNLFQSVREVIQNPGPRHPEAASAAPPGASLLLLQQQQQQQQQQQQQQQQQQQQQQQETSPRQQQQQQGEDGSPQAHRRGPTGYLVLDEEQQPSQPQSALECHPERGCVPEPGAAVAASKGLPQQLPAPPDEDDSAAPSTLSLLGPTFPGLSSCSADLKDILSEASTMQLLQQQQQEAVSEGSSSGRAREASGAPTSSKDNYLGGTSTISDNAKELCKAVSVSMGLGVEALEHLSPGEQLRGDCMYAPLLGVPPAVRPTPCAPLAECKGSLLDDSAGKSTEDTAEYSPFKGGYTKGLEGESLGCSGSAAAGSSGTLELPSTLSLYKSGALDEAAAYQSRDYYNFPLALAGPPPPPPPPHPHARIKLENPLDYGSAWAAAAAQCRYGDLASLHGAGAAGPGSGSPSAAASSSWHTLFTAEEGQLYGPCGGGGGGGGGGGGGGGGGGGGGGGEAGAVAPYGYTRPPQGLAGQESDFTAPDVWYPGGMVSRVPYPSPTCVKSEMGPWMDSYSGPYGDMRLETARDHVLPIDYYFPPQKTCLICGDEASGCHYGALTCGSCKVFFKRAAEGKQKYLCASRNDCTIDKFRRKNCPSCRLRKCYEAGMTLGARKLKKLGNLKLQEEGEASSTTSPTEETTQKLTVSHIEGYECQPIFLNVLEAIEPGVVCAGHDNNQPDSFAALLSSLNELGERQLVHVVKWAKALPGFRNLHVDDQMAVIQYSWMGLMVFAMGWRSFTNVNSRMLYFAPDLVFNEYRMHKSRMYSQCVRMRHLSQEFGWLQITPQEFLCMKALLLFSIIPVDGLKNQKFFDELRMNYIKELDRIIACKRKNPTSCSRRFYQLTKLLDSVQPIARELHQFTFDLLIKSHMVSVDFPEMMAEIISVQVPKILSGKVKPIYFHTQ
Test: LNCaP-AR-wt ANT reporter assay (antagonist mode)
Type: cell-based
Details: antagonist mode; maximum % inhibition of R1881 control response over tested concentration range; read-out: LNCaP-AR-wt ANT MAX % Inh
// Emax lookup, one value per entry
quantity name: Emax (%)

C[N@+]1([O-])CC[C@H](Oc2ccc(N3C(=S)N(c4cnc(C#N)c(C(F)(F)F)c4)C(=O)C34CCC4)cc2)CC1 [Cpd 190] :: 95.3
CN1CCN(Cc2ccc(N3C(=S)N(c4cnc(C#N)c(Cl)c4)C(=O)C34CCC4)cc2)CC1 [Cpd 219] :: 102
N#Cc1ncc(N2C(=O)C3(CCC3)N(c3ccc4c(ccn4CCO)c3)C2=S)cc1C(F)(F)F [Cpd 248] :: 0
Cc1nc2cc(N3C(=S)N(c4cnc(C#N)c(C(F)(F)F)c4)C(=O)C34CCC4)ccc2[nH]1 [Cpd 245] :: 99.3
N#Cc1ncc(N2C(=O)C3(CCC3)N(c3ccc(C(=O)NC[C@@H]4CCCNC4)c(F)c3)C2=S)cc1C(F)(F)F [Cpd 202] :: 102
Cc1cc(N2C(=O)C3(CCC3)N(c3ccc(CC4CCNCC4)cc3)C2=S)cnc1C#N [Cpd 235] :: 101
CN1CC[C@@H](CNC(=O)c2ccc(N3C(=S)N(c4cnc(C#N)c(C(F)(F)F)c4)C(=O)C34CCC4)cc2F)C1 [Cpd 205] :: 101

====

Biological target: wild-type Androgen Receptor (AR-wt) (Homo sapiens (Human))
Assay: LNCaP-AR-wt ANT reporter assay (antagonist mode)
Type: cell-based
Conditions: antagonist mode; maximum % inhibition of R1881 control response over tested concentration range; read-out: LNCaP-AR-wt ANT MAX % Inh
quantity name: Emax (%)

N#Cc1ncc(N2C(=O)C3(CCC3)N(c3ccc(CN4CCOCC4)cc3)C2=S)cc1C(F)(F)F [Cpd 217] :: 102
N#Cc1ncc(N2C(=O)C3(CCC3)N(c3ccc(CN4CCC(N)CC4)cc3)C2=S)cc1C(F)(F)F [Cpd 224] :: 101
Cc1cc(N2C(=O)C3(CCC3)N(c3cnc(OC4CCN(C)CC4)nc3)C2=S)cnc1C#N [Cpd 247] :: 0
CN1CCC(Oc2ccc(N3C(=S)N(c4cnc(C#N)c(C(F)(F)F)c4)C(=O)C34CCC4)cc2)CC1=O (racemic) [Cpd 189] :: 100

====

// IC50 lookup, one value per entry
Target: F876L mutant Androgen Receptor (AR-F876L) (Homo sapiens (Human), UniProt P10275, F877L)
Sequence (P10275 whole entry F877L): as the sequence (P10275 whole entry) above, with F877L counted along it
Experiment: LNCaP-AR-F876L ANT reporter assay (antagonist mode)
Assay type: cell-based
Conditions: antagonist mode; pIC50 = −Log10(IC50 in Molar); read-out: LNCaP-AR-F876L ANT pIC50 (converted)
quantity name: IC50 (nM)

COc1cc(N2C(=S)N(c3cnc(C#N)c(C)c3)C(=O)C23CCC3)ccc1-c1ccc(C)o1 :: 661
CN1CC[C@@H](Oc2ccc(N3C(=S)N(c4cnc(C#N)c(C(F)(F)F)c4)C(=O)C34CCC4)cc2)C[C@H]1C(F)(F)F (racemic) :: 427
COCCN1CCC(Oc2ccc(N3C(=S)N(c4cnc(C#N)c(C)c4)C(=O)C34CCC4)cn2)CC1 :: 20.9
N#Cc1ncc(N2C(=O)C3(CCC3)N(c3ccc(OC4C5CCC4CNC5)cc3)C2=S)cc1C(F)(F)F (centres unmarked) :: 269
CCOC(=O)N1CCN(C(=O)c2ccc(N3C(=S)N(c4cnc(C#N)c(C(F)(F)F)c4)C(=O)C34CCC4)cc2)CC1 :: 617
CN1CCN(Cc2ccc(N3C(=S)N(c4cnc(C#N)c(Cl)c4)C(=O)C34CCC4)cc2)CC1 :: 347
COCCn1cc2ccc(N3C(=S)N(c4cnc(C#N)c(C(F)(F)F)c4)C(=O)C34CCC4)cc2n1 :: 468
N#Cc1ncc(N2C(=O)C3(CCC3)N(c3ccc(OC4CCCNCC4)cc3)C2=S)cc1C(F)(F)F (centres unmarked) [Cpd 30] :: 91.2
CC(C)(C)OC(=O)N1CCc2cc(N3C(=S)N(c4cnc(C#N)c(C(F)(F)F)c4)C(=O)C34CCC4)ccc2C1 :: 676
CN1CCC(C)(Oc2ccc(N3C(=S)N(c4cnc(C#N)c(C(F)(F)F)c4)C(=O)C34CCC4)cc2)CC1 :: 355
N#Cc1ncc(N2C(=O)C3(CCC3)N(c3ccc(OC4CC5CC4CN5)cc3)C2=S)cc1C(F)(F)F (centres unmarked) :: 245
N#Cc1ncc(N2C(=O)C3(CCC3)N(c3ccc4nn(C5CCNCC5)cc4c3)C2=S)cc1C(F)(F)F :: 288
CC(=O)N1CC(F)(F)CC1COc1ccc(N2C(=S)N(c3cnc(C#N)c(C(F)(F)F)c3)C(=O)C23CCC3)cc1 (centres unmarked) :: 178
C#CCN1CC(Oc2ccc(N3C(=S)N(c4cnc(C#N)c(C(F)(F)F)c4)C(=O)C34CCC4)cc2)C1 :: 112
CC1(Oc2ccc(N3C(=S)N(c4cnc(C#N)c(C(F)(F)F)c4)C(=O)C34CCC4)cc2)CCNCC1 :: 339
CN1CCC(n2ccc3cc(N4C(=S)N(c5cnc(C#N)c(C(F)(F)F)c5)C(=O)C45CCC5)ccc32)CC1 :: 174
CN1[C@@H]2CC[C@H]1C[C@H](Oc1ccc(N3C(=S)N(c4cnc(C#N)c(C(F)(F)F)c4)C(=O)C34CCC4)cc1)C2 :: 43.7
N#Cc1ncc(N2C(=O)C3(CCC3)N(c3ccc4[nH]ncc4c3)C2=S)cc1Cl :: 219
Cc1cc(N2C(=O)C3(CCC3)N(c3ccc(CC4CCN(C)CC4)cc3)C2=S)cnc1C#N :: 813
CN1CCC(CN(C)C(=O)c2ccc(N3C(=S)N(c4cnc(C#N)c(C(F)(F)F)c4)C(=O)C34CCC4)cc2)CC1 :: 417
CN1C2CCC1C(F)C(Oc1ccc(N3C(=S)N(c4cnc(C#N)c(C(F)(F)F)c4)C(=O)C34CCC4)cc1)C2 (centres unmarked) :: 70.8
CN1CCC(Oc2ccc(N3C(=S)N(c4cnc(C#N)c(Cl)c4)C(=O)C34CCC4)cn2)CC1 :: 69.2
COc1cc(N2C(=O)C3(CCC3)N(c3ccc4c(cnn4C4CCN(C(C)=O)CC4)c3)C2=S)cnc1C#N :: 331
N#Cc1ncc(N2C(=O)C3(CCC3)N(c3ccc(OCC4CNCCO4)cc3)C2=S)cc1C(F)(F)F (centres unmarked) :: 21.4
N#Cc1ncc(N2C(=O)C3(CCC3)N(c3ccc(OC4CCNC(=O)C4)cc3)C2=S)cc1C(F)(F)F (racemic) :: 174
CN1CCC(Cn2cc3cc(N4C(=S)N(c5cnc(C#N)c(C(F)(F)F)c5)C(=O)C45CCC5)ccc3n2)CC1 :: 36.3
Cc1cc(N2C(=O)C3(CCC3)N(c3ccc(OC4CCN(CCF)CC4)nc3)C2=S)cnc1C#N :: 22.9
N#Cc1ncc(N2C(=O)C3(CCC3)N(c3ccc(OC4CCNC5(CCC5)C4)cc3)C2=S)cc1C(F)(F)F (racemic) :: 145
N#Cc1ncc(N2C(=O)C3(CCC3)N(c3ccc(OCC4(N)COC4)cc3)C2=S)cc1C(F)(F)F :: 302
